The reported numbers originate from patent US12187709B2.

// endpoint pKd / system c-Cbl (residues 47-435) (Homo sapiens (Human))
pKd: −log10 of the molar value.
MEASUREMENT TYPE: pKd

Previously resolved entries follow.
INSERT INTO results (molecule, measurement_type, measured_number) VALUES
  ('Cn1cnnc1[C@]1(c2cccc(N3Cc4c(cc(CNC5(C)CCC5)cc4C(F)(F)F)C3=O)c2)C[C@H](F)C1', 'pKd', 7.82),
  ('CO[C@H]1C[C@@H]([C@@H](c2cccc(N3Cc4c(cc(CN5CCN(C)C[C@@H]5C(C)C)cc4C(F)(F)F)C3=O)c2)c2nncn2C)C1 (stereo in doubt) [Compound 13]', 'pKd', 6.31),
  ('Cn1cnnc1[C@]1(c2cccc(N3Cc4c(cc(CNC5(C)CCC5)cc4C(F)(F)F)C3=O)c2)C[C@H](CO)C1.O=CO', 'pKd', 6.64),
  ('Cn1cnnc1[C@]1(c2cccc(N3Cc4c(cc(CNC5(C)CCC5)cc4C(F)(F)F)C3=O)c2)C[C@@H](CF)C1', 'pKd', 8.38);

A = CC(=O)C1CC([C@@H](c2cccc(N3Cc4c(cc(CNC5(C)CCC5)cc4C(F)(F)F)C3=O)c2)c2nncn2C)C1 (single isomer, unassigned) [Compound 384]
B = Cn1cnnc1[C@]1(c2cccc(N3Cc4c(cc(CNC5(C)CCC5)cc4C(F)(F)F)C3=O)c2)C[C@@](C)(O)C1
Hi there! Just curious which has the higher pKd between A and B . // caller expects the label of the chosen entry
A
